# procedureDetails: Dissolution in aqueous vehicles
# Format: physicochemical
# conditionDetails: 40% glycerol/60% pbs, organic solvent or mixture; read-out: solubility (will dissolve)
# Text: The invention also contemplates a method for dissolving the compounds of the invention in an aqueous vehicle. This method comprises the use of ultrasound or mechanical agitation for an extended period of time which will dissolve the compound. Generally ultrasound is produced by a transformer which transforms 50/60 hertz, line voltage AC into high frequency electrical energy which is coupled to a transducer. […] It has been determined that the compound of Example 1 will dissolve as follows: […]

lineNotation	solubility (µg/mL)
Cl[TeH]1(Cl)(Cl)OCCO1	6000

----------
# Test system: IL-2 receptors
# procedureDetails: Induction of IL-2 receptors of human mononuclear cells, proliferation with recombinant IL-2 (Example 18)
# Assay type: cell-based
# conditionDetails: Test B, 1 × 10^-4 μg/ml

compound	proliferation (3HT uptake)
O=[Te]=O [TeO2, Tellurium dioxide, reference compound]	2925 counts per minute
Cl[TeH]1(Cl)(Cl)OCCO1	4960 counts per minute
Cl[Te]1(Cl)OCCO1	5372 counts per minute
C1CO[Te]2(O1)OCCO2	2327 counts per minute

----------
# procedureDetails: Dissolution in aqueous vehicles
# Assay type: physicochemical
# conditionDetails: 20% glycerol/80% pbs, organic solvent or mixture; read-out: solubility (will dissolve)
quantity: solubility (µg/mL)

lineNotation	quantity	reportedMeasurement
Cl[TeH]1(Cl)(Cl)OCCO1	solubility	1300

----------
# Test system: IL-2 receptors
# procedureDetails: Induction of IL-2 receptors of human mononuclear cells, proliferation with recombinant IL-2 (Example 18)
# Assay type: cell-based
# conditionDetails: Test B, 1 μg/ml
quantity: proliferation (3HT uptake) (counts per minute)

molecule	unitsText	reportedMeasurement
O=[Te]=O [TeO2, Tellurium dioxide, reference compound]	counts per minute	3275
Cl[Te]1(Cl)OCCO1 [Example 2]	counts per minute	9315
C1CO[Te]2(O1)OCCO2 [Example 14]	counts per minute	2620
Cl[TeH]1(Cl)(Cl)OCCO1 [Example 1]	counts per minute	23488

----------
# Test system: IL-2 receptors
# procedureDetails: Induction of IL-2 receptors of human mononuclear cells, proliferation with recombinant IL-2 (Example 18)
# Assay type: cell-based
# conditionDetails: Test B, 5 × 10^-2 μg/ml
Quick reference for proliferation (3HT uptake) among some compounds

compound	proliferation (3HT uptake) (counts per minute)
C1CO[Te]2(O1)OCCO2	3290
O=[Te]=O [TeO2, Tellurium dioxide, reference compound]	4280
Cl[Te]1(Cl)OCCO1	5538
Cl[TeH]1(Cl)(Cl)OCCO1	5390
